# method: protein stability index of a GFP-peptide fusion (GPS, HEK-293T) (PSI 1-6); higher = more stable;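 also: 24-mer peptide tiles fused after GFP, lentivirally expressed, FACS-sorted into six equal bins by GFP/DsRed ratio, decoded by Illumina sequencing, PSI is the read-weighted mean bin number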
# testSettings: treatment: DMSO; c terminus: a fixed tail appended
# binarize protein stability index: threshold 3 inclusive, high side Met, low side Not met

Worked examples, 6 sequences total:
KREELCRQIQEEEDEKQRLQNEVR [SSNA1] : Met
TAGEMVFVYENAKEGARNIRTSER [BTBD10] : Met
TDLIWKNQNSWGTGEDVKVILKNS [LMNB1] : Met
TAKDNGEAEDQEEKEDAEKENIEK [SRPK2] : Met
RPGATAVPTPLTNVQILLPVGEPV [FCHO1] : Met
SQDERLDVLLTLKHTVKEHECKLT [IQUB] : Met

Check this sequence for protein stability index at or above 3: MDDERYFNEMSAQGLRPRTVSSPI [CCDC6]
Met

Check this sequence for protein stability index at or above 3: PGKINCLRNCKTYQARKPLWFYNT [RHOBTB3]
Not met

Check this sequence for protein stability index at or above 3: QTRNGLGKDHEILRRRIENGAKEL [FUT8]
Met

Check this sequence for protein stability index at or above 3: GYNLRALAEGVSASLHTLLGDPCP [HDAC6]
Not met

Check this sequence for protein stability index at or above 3: LRKKILKIRHGWEDVTKINKTEIC [STEAP1]
Not met

Check this sequence for protein stability index at or above 3: VGEFPIISPGRVYEYTSCTTFSTT [FBXO3]
Not met

Check this sequence for protein stability index at or above 3: EKTGPQLTSRIKGDWIGLYRHFLK [DENND6A]
Not met

Check this sequence for protein stability index at or above 3: KQLKPWCWYCNRDFDDEKILIQHQ [ZNF207]
Not met

Check this sequence for protein stability index at or above 3: ELFRIGGKSPDTNYLFMGDYVDRG [PPP2CA]
Not met

Check this sequence for protein stability index at or above 3: GMLSYCDRYSEGIKHVLQTFGPIP [CRYL1]
Not met

Check this sequence for protein stability index at or above 3: GTNAWEEIATKPHEKIGFPAARRC [KLHDC10]
Met

Check this sequence for protein stability index at or above 3: VYKDGEHGEEQRITIEPGTSYRLQ [PTPRD]
Met

Check this sequence for protein stability index at or above 3: AREYYSEADASHCIQQILEAVLHC [CAMK2A]
Not met

Check this sequence for protein stability index at or above 3: MCLSPDRKMEVEELSPLALGRFSL [CDC25B]
Not met

---

# protein stability index annotations
# method: protein stability index of a GFP-peptide fusion (GPS, HEK-293T) (PSI 1-6); higher = more stable
# testSettings: treatment: DMSO; c terminus: a fixed tail appended
Answer with a number only.

PRTNEWTYVAKMSEPHYGHAGTVY [KLHL13] : 2.44
DSSFPPALAEGYRYPELDTPKLDC [TBX6] : 4.7
ATCRLCGEQVGRGPGFHAGTSALW [ZBED3] : 2.2

Next, consider the following sequence.
So what does the record say about protein stability index for RTYFHEFGHVMHQICAQVSFFFPP [NLN] ?
2.43

---

# protein stability index annotations
# method: protein stability index of a GFP-peptide fusion (GPS, HEK-293T) (PSI 1-6); higher = more stable
# testSettings: treatment: MLN4924 1 uM, 8 h; c terminus: a fixed tail appended
Answer with a number only.

RTRPRKPIRCGEVLFAVGGWCSGD [KLHL20] : 2.17
SQKNEKALTNIQNCMAEKRETVLI [C8orf76] : 3.69
MCYGYGCGCGSFCRLGYGCGYEGC [KRTAP19-2] : 2.43
QPRDEEEAELELLRQFDLAWQYGP [POLD4] : 4.54
VSITLLALVYLPGVIAAIVQLHNG [STEAP1] : 3.11

So what does the record say about protein stability index for ESEDCKLPCNPCATTNASGNSCGP [KRT34] ?
5.25
